target: human mGluR5d (Homo sapiens, UniProt P41594); experiment: FLIPR analysis of [Ca2+]i mobilization (Group I receptor antagonist activity); conditions: cells expressing human mGluR5d; antagonist block of agonist challenge
Sequence (P41594 21-942 isoform P41594-3 limits assumed): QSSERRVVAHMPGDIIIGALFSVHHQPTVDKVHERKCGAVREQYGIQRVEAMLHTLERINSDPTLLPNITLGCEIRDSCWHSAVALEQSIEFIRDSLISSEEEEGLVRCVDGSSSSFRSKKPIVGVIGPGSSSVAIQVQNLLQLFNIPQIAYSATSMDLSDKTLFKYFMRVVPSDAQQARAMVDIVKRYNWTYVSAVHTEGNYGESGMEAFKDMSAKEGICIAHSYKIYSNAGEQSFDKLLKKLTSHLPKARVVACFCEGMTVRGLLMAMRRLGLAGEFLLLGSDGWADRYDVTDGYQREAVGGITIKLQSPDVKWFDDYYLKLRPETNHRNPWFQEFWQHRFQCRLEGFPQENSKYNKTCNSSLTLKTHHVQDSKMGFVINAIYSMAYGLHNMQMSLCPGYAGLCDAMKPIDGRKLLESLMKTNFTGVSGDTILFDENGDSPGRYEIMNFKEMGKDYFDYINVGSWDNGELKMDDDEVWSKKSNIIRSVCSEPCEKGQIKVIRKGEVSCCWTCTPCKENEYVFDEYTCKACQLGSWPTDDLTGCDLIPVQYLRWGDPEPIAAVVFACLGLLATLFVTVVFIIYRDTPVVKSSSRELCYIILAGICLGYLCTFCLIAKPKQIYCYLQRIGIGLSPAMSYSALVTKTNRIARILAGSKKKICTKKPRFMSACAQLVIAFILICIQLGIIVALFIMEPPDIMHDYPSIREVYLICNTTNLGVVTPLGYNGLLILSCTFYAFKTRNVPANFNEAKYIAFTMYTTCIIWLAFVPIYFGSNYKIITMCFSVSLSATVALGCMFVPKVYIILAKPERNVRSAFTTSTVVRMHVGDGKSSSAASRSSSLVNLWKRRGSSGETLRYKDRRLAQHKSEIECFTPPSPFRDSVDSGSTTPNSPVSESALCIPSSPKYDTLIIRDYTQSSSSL
Measure Name: IC50 (nM)

P: CC(Oc1nnc(-c2ccncc2)n1C)c1cnn(-c2cccc(Cl)c2)n1 (centres unmarked)
Q: Clc1cccc(-n2cc(CSc3nnc(-c4ccncc4)n3C3CC3)nn2)c1
Determine, for P and Q , which has the greater value of IC50. // output: label of the selected item Q
(Q: 265 nM, P: 27 nM)
